system: HL-60(TB) leukemia; assay: NCI-60 one-dose screen, 48 h (100 = growth as untreated, 0 = no growth, -100 = all killed); conditions: 10 µM unless noted
This is part of a sample that, as a whole, favours compounds with a hit. Of some 83,000 tested, about 20% had one in any assay.
Listing of recorded growth by entry.
Report the value in % with no unit label.

Please review the entries below; each comes with its answer.
1) CSC(=S)N/N=C(\C)c1ccccn1 ... -12.1
2) C=CCNc1nc(O)c(/C=C2\C=Nc3ncccc32)s1 ... -14.5
3) COc1ccc(Cn2cc3c(c2-c2ccccc2)CCc2cnoc2-3)cc1 ... 4.48
4) CCN(CC)CCOc1nc2c3ccc(Cl)cc3nn2c2ccccc12 ... 19.5
5) C=CCCCCCCCCCOC(C)=O ... 120

# query: growth of entry COc1ccc(C2CC(c3ccc(Nc4ccnc5cc(Cl)ccc45)cc3)=NN2C=O)cc1 (stereo not given)
-42.6

Fill in the blank: the reported growth of C=C(C)[C@@H]1CC[C@]2(C(=O)N3CCN(C)CC3)CC[C@]3(C)[C@H](CC[C@@H]4[C@@]5(C)C/C(=C/c6ccc(C(F)(F)F)cc6)C(=O)C(C)(C)[C@@H]5CC[C@]43C)[C@@H]12 is ____.
94.1

Need growth, item COC(=O)c1cc(=O)nc(N/N=C/c2ccc(C)cc2)s1
105

Would you mind telling me what growth value was observed for CCN(CC)Cc1cc(Nc2ccnc3cc(Cl)ccc23)cc(-c2ccc(Cl)cc2)c1O ?
51.3

Please give the measured growth for this compound: COc1ccc(OC)c(-c2cc(-c3ccc(Cl)cc3)c3c(N)c(C(=O)c4ccc(Cl)cc4)sc3n2)c1
110

---

In this section we review reported growth values for a set of compounds.
tested on: BT-549 breast; assay: NCI-60 one-dose screen, 48 h (100 = growth as untreated, 0 = no growth, -100 = all killed); conditions: 10 µM
The panel holds about 83,000 compounds, 20% with a hit somewhere; the sample as a whole holds those more often.
Answer format: numeric, % implied, no suffix.

Answered examples (6):
1) CCCCOC(=O)c1ccccc1C(=O)O.CCCCOC(=O)c1ccccc1C(=O)O.[Cu+2] ... 105
2) CN1CC2CCC(C1)C2=O ... 88.8
3) O=c1[nH]c2cc(Cl)ccc2n1C1CCN(CCCC(c2ccc(F)cc2)c2ccc(F)cc2)CC1 ... 78.4
4) CCC1CN1P(=O)(OCCOC)N1CC1CC (stereo unspecified) ... 106
5) O=C(O)CNC(=O)c1ccccc1 ... 97.5
6) CC(C)(C)[Si](C)(C)OC1[C@@H](O[Si](C)(C)C(C)(C)C)[C@@H](CNC(=O)NC(=O)CF)O[C@H]1n1cnc2c(NC(=O)Nc3ccccc3)ncnc21 (stereo partly specified) ... 68.9

I have this compound here, CNC(=O)Oc1cc(C(C)C)ccc1Sc1ccc(C(C)C)cc1OC(=O)NC , and I need its recorded growth.
94.2

---

system: HL-60(TB) leukemia; test: NCI-60 one-dose screen, 48 h (100 = growth as untreated, 0 = no growth, -100 = all killed); conditions: 10 µM unless noted
This is part of a sample that, as a whole, favours compounds with a hit. Of some 83,000 tested, about 20% had one in any assay.
observedProperty: growth (%)
All answers are understood in %, so give the number only.

Examples from the recorded data:
1) CN(C)C1=NCCN1 ... 97.9
2) C=C(C)[C@@H]1CC[C@]2(C(=O)NCCCO)CC[C@]3(C)[C@H](CC[C@@H]4[C@@]5(C)CCCNC(C)(C)[C@@H]5CC[C@]43C)[C@@H]12 ... 34.1
3) O=C1c2cccc(NCCN=Cc3cc([N+](=O)[O-])ccc3O)c2C(=O)c2c(NCCN=Cc3cc([N+](=O)[O-])ccc3O)cccc21 ... 70.8
4) c1ccc2c(c1)Cc1ccccc1N2CCN1CCCCC1 ... 85.1
5) CC(C)(C#N)N1CCN(c2ccccc2Cl)CC1 ... 103
6) Cc1nn(-c2ccc([N+](=O)[O-])cc2)c2ncnc(NCCc3ccccc3)c12 ... 65.9
7) O=C(CCN1CCCCC1)c1ccc2ccccc2c1 ... 112
8) CN1CCN(CCOc2ccc(-c3cnc4c(-c5ccc(C(F)(F)F)cc5)cnn4c3)cc2)CC1 ... -32.5

Attention now shifts to the item below.
Using the record for O=C(Nc1cccc(-n2cc(-c3ccncc3)c(-c3ccc(O)c(Cl)c3)n2)c1)c1cccc(C(F)(F)F)c1 , report its growth.
13.3

---

Each entry below lists one item and its recorded growth value.
Test system: SNB-19 CNS
Test: NCI-60 one-dose screen, 48 h (100 = growth as untreated, 0 = no growth, -100 = all killed)
Details: 10 µM unless noted
Method: Growth inhibition of the SNB-19 human tumor cell line is measured as a screen for anti-cancer activity. Cells are grown in 96 well plates and exposed to the test compound for 48 hours. Compounds are tested at a single concentration, which is 10^-5 M for most compounds. The reported endpoint is percent growth (GI% or GIPRCNT), where numbers from 0 - 100% represent growth inhibition, and numbers from -100% - 0 represent cell death. For example, a value of 40 represents 60% growth inhibition. […]
About 83,000 compounds went through this panel and 20% of them were active in at least one assay; those are over-represented in the sample as a whole.
# number only, unit % dropped from output

Field: example entries. Status: answers known.
1. CC(CC(C#N)(c1ccccc1)c1ccccc1)N1CCOCC1 (stereo unspecified) ... 92.2
2. C=CCC1(CC)C(=O)NC(=S)NC1=O ... 97.1
3. Cc1ccc(N)cc1[As]=[As]c1cc(N)ccc1C (stereo unspecified) ... -47.5
4. COc1cc(C2CC(=O)Nc3nc(N)[se]c32)cc(OC)c1OC (stereo unspecified) ... 52.1
5. NCCc1cc(O)c(O)cc1O ... 100

Consider now this further molecule.
So what does the record say about growth for CC(=O)Nc1ccc(Cc2ccc(NC(C)=O)cc2)cc1 ?
121

---

test system: MALME-3M melanoma; test: NCI-60 one-dose screen, 48 h (100 = growth as untreated, 0 = no growth, -100 = all killed); conditions: 10 µM unless noted
The panel holds about 83,000 compounds, 20% with a hit somewhere; the sample as a whole holds those more often. Active and inactive are the calls of the source. How the source made its calls: active means growth percent below 10; inactive means the rest.
Recorded growth, one value per entry.

Reference set (5 entries):
1. C=CCN1C(=O)C(CC)(CCC(C)C)C(=O)NC1=S (stereo unspecified) ... 96.1% (inactive)
2. c1ccc([As]=[As]c2ccccc2)cc1 (stereo unspecified) ... -84.5% (active)
3. O=C(/C=C/c1ccccc1)N[C@@H](CO)Cc1cnc[nH]1 ... 110% (inactive)
4. CC(C)(C)[Si](C)(C)OC1[C@@H](O[Si](C)(C)C(C)(C)C)[C@@H](CNC(=O)NC(=O)CF)O[C@H]1n1cnc2c(NC(=O)Nc3ccccc3)ncnc21 (stereo partly specified) ... 101% (inactive)
5. CC1(C)N=C(N)N=C(N)N1c1ccc(CCCCc2ccc(S(=O)(=O)F)cc2)cc1 ... 52.8% (inactive)

Data request, read-out growth, for CC(=O)O[C@@H]1C2=C(C)C3(CC3)[C@@](C)(O)C(=O)C2=C[C@@]1(C)CO
-69.7% (active)

Using the record for O=C(O)CNC(=O)c1ccccc1 , report its growth.
133% (inactive)

Given the entry CC(C)(C)NCC(O)c1ccccc1Cl (stereo unspecified) , report its measured growth.
35.8% (inactive)

Would you kindly share the measured growth for Nc1ccc([N+](=O)[O-])c2c1Oc1ccccc1O2 ?
121% (inactive)

Suppose we examine the molecule COc1ccc(CN2CCN(Cc3ccccc3)CC2)c(O)c1 ; what growth value has been reported?
98.4% (inactive)

Fill in: growth of CC1([N+](=O)[O-])COP(=O)(Nc2ccc(F)cc2)OC1 (stereo unspecified) is ___
110% (inactive)

---

The entries below are paired with their reported growth.
Test system: MDA-MB-231 breast
Assay: NCI-60 one-dose screen, 48 h (100 = growth as untreated, 0 = no growth, -100 = all killed)
Conditions: 10 µM unless noted
Protocol: Cells are grown in 96 well plates and exposed to the test compound for 48 hours. Compounds are tested at a single concentration, which is 10^-5 M for most compounds. The reported endpoint is percent growth (GI% or GIPRCNT), where numbers from 0 - 100% represent growth inhibition, and numbers from -100% - 0 represent cell death. For example, a value of 40 represents 60% growth inhibition. A value of 0 means no net growth occurred over the course of the experiment. […]
This is part of a sample that, as a whole, favours compounds with a hit. Of some 83,000 tested, about 20% had one in any assay.
Form entry: value (%) — number only.

In the examples that follow, each entry is paired with its recorded growth.
1. COc1ccc(CN2CCN(Cc3ccccc3)CC2)c(O)c1 ... 104
2. Cc1cccc(N=C2c3cc([N+](=O)[O-])ccc3-c3c2cc([N+](=O)[O-])cc3[N+](=O)[O-])c1 ... 60.2
3. CC(C)(O)/C=C/C(=O)[C@](C)(O)[C@H]1[C@H](O)C[C@@]2(C)[C@@H]3CC=C4[C@@H](C=C(O)C(=O)C4(C)C)[C@]3(C)C(=O)C[C@]12C ... -25

Find the recorded growth belonging to CCC(C)[C@H]1O[C@]2(C=C[C@@H]1C)C[C@@H]1C[C@@H](C/C=C(\C)[C@@H](OC3C[C@H](OC)C(O[C@H]4C[C@H](OC)[C@@H](O)[C@H](C)O4)[C@H](C)O3)[C@@H](C)/C=C/C=C3\CO[C@@H]4[C@H](O)C(C)=C[C@@H](C(=O)O1)[C@]34O)O2 (some centres not stated) and report it.
-58.2

What does the record list as growth for CCC1([N+](=O)[O-])COP(=O)(NCc2cccnc2)OC1 (configuration not stated) ?
111

Tell me the measured growth of NC(=O)SCC(=O)Nc1ccc([As](=O)(O)O)cc1 , please.
90.8

Which growth value belongs to OC1(c2ccc(Cl)cc2Cl)c2ccccc2C2=NCCN21 (configuration not stated) ?
85.2

// lookup growth for COc1ccc(NP2(=O)OCC(C)(N)CO2)cc1 (configuration not stated)
106

Quick one: growth of C[C@]12C[C@H](O)[C@H]3[C@@H](CCC4=CC(=O)CC[C@@]43C)[C@@H]1CC[C@@H]2O ?
103
